src = patent US10414765B2

So I've got a bunch of compounds here, and I need their IC50 values.
molecular target: human TASK-1 (Homo sapiens (Human), UniProt O14649); assay: Inhibition of recombinant TASK-1 in stably transfected CHO cells (voltage-sensitive dye, 40 mM KCl depolarization); format: cell-based; conditions: 40 mM potassium chloride
Sequence (O14649 whole entry): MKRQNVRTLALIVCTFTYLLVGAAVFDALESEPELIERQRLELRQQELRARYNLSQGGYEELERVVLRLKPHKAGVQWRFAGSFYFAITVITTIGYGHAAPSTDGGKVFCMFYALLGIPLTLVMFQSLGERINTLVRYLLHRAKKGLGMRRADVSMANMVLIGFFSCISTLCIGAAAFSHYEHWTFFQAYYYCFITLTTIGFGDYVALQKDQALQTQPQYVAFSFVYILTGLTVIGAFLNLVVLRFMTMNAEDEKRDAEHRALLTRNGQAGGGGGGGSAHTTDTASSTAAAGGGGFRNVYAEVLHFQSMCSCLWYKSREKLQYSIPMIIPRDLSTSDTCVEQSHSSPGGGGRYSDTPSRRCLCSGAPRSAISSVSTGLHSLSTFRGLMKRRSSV
Answers are plain numbers, in nM.

Compound | IC50 [nM]
O=C(N1CC2CN(Cc3c(-c4ccc(Br)cc4)nc4ccccn34)CC2C1)N1CCCc2ccccc21 (stereo not shown) | 480

Record IC50 for all entries; do not skip any.
1. COc1cccc(C(=O)N2CC3CN(Cc4c(-c5ccc(Cl)cc5)nc5ccccn45)CC3C2)n1 (stereo not shown)
2. O=C(OC1CCCC1)N1CC2CN(Cc3c(-c4ccc(Br)cc4)nc4ccccn34)CC2C1 (stereo not shown)
3. COc1ccc(F)cc1C(=O)N1CC2CN(Cc3c(-c4ccc(Cl)cc4)nc4ccccn34)CC2C1 (stereo not shown)

947
500
1250

###

So I've got a bunch of compounds here, and I need their IC50 values.
target: human TASK-3 (Homo sapiens (Human)); experiment: Inhibition of recombinant TASK-3 in stably transfected CHO cells (voltage-sensitive dye, 40 mM KCl depolarization); format: cell-based; details: 40 mM potassium chloride
One number for each entry, in µM.

Compound | IC50 [µM]
Cc1ccc(F)cc1C(=O)N1CC2CN(Cc3c(-c4ccc(Cl)cc4)nc4ccccn34)CC2C1 (centres unmarked) | 0.23

Record IC50 for all entries; do not skip any.
1. CC(C)(C)OC(=O)N1CC2CN(Cc3c(-c4ccc(Cl)cc4)nc4ccccn34)CC2C1 (centres unmarked)
2. COc1ccc(Cl)c(C(=O)N2CC3CN(Cc4c(-c5ccc(Cl)cc5)nc5ccccn45)CC3C2)n1 (centres unmarked)

1: 6.1; 2: 0.08

Record IC50 for all entries; do not skip any.
1. O=C(c1cc(F)ccc1Cl)N1CC2CN(Cc3c(-c4ccc(Br)cc4)nc4ccccn34)CC2C1 (centres unmarked)
2. COc1cccc(C(=O)N2CC3CN(Cc4c(-c5ccc(C(C)C)cc5)nc5ccccn45)CC3C2)c1 (centres unmarked)
3. O=C(c1cc(F)ccc1Cl)N1CC2CN(Cc3c(-c4ccc(Cl)cc4)nc4ccccn34)CC2C1 (centres unmarked)
4. CC(C)c1ccc(-c2nc3ccccn3c2CN2CC3CN(C(=O)OC(C)(C)C)CC3C2)cc1 (centres unmarked)
5. O=C(C1CCCC1)N1CC2CN(Cc3c(-c4ccc(Br)cc4)nc4ccccn34)CC2C1 (centres unmarked)

1. 4.3
2. 0.17
3. 2.9
4. 7.4
5. 1.6

###

target: human TASK-3 (Homo sapiens (Human), UniProt Q9NPC2); test: Two-electrode voltage clamp of human TASK-3 channels expressed in Xenopus laevis oocytes; format: cell-based
Sequence (Q9NPC2 whole entry): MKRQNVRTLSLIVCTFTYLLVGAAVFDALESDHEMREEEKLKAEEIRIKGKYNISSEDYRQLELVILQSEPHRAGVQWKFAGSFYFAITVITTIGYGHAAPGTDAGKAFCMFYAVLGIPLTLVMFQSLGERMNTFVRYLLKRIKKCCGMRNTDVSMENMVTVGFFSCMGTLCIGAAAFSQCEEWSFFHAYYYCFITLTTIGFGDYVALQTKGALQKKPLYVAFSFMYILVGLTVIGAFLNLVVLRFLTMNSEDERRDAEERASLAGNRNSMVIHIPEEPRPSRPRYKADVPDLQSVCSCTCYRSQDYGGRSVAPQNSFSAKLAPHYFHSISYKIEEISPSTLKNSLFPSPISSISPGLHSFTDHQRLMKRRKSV
So I've got a bunch of compounds here, and I need their pIC50 values.
Answers are plain numbers, as −log10 of the molar value.

Use these answered entries as a reference point.
Compound | pIC50
COc1cccc(C(=O)N2CC3CN(Cc4c(-c5ccc(Cl)cc5)nc5ccccn45)CC3C2)c1 (stereo not shown) | 7.66
COc1cccc(C(=O)N2CC3CN(Cc4c(-c5ccc(Br)cc5)nc5ccccn45)CC3C2)c1 (stereo not shown) | 6.01

Record pIC50 for all entries; do not skip any.
1. COc1cccc(C(=O)N2CC3CN(Cc4c(-c5ccc(C(C)C)cc5)nc5ccccn45)CC3C2)n1 (stereo not shown)
2. COc1cccc(C(=O)N2CC3CN(Cc4c(-c5ccc(Cl)cc5)nc5ccccn45)CC3C2)n1 (stereo not shown)

1: 7.36; 2: 6.59

###

target: human TASK-1 (Homo sapiens (Human), UniProt O14649); assay: Inhibition of recombinant TASK-1 in stably transfected CHO cells (voltage-sensitive dye, 40 mM KCl depolarization); type: cell-based; details: 40 mM potassium chloride
Parameter: IC50 (nM)
One number for each entry, in nM.

Compound | Parameter | Observed Value
O=C(Oc1cccc(C(F)(F)F)c1)N1CC2CN(Cc3c(-c4ccc(Br)cc4)nc4ccccn34)CC2C1 (stereo not shown) | IC50 | 180
O=C(Nc1cc(C(F)(F)F)ccc1Cl)N1CC2CN(Cc3c(-c4ccc(Br)cc4)nc4ccccn34)CC2C1 (stereo not shown) | IC50 | 700
O=C(OCc1ccccc1)N1CC2CN(Cc3c(-c4ccc(Br)cc4)nc4ccccn34)CC2C1 (stereo not shown) | IC50 | 460
COc1cccc(C(=O)N2CC3CN(Cc4c(-c5ccc(C(C)C)cc5)nc5ccccn45)CC3C2)n1 (stereo not shown) | IC50 | 230
CN(C(=O)N1CC2CN(Cc3c(-c4ccc(Br)cc4)nc4ccccn34)CC2C1)c1ccccc1 (stereo not shown) | IC50 | 920

Record IC50 for all entries; do not skip any.
1. COc1ccc(F)c(C(=O)N2CC3CN(Cc4c(-c5ccc(Cl)cc5)nc5ccccn45)CC3C2)n1 (stereo not shown)
2. O=C(OCCF)N1CC2CN(Cc3c(-c4ccc(Br)cc4)nc4ccccn34)CC2C1 (stereo not shown)
3. O=C(C1CCCCC1)N1CC2CN(Cc3c(-c4ccc(Br)cc4)nc4ccccn34)CC2C1 (stereo not shown)
4. O=C(c1cccc(C(F)(F)F)c1)N1CC2CN(Cc3c(-c4ccc(Cl)cc4)nc4ccccn34)CC2C1 (stereo not shown)
5. COc1cccc(C(=O)N2CC3CN(Cc4c(-c5ccc(C(C)C)cc5)nc5ccccn45)CC3C2)c1 (stereo not shown)

1: 1100; 2: 600; 3: 1360; 4: 728; 5: 170

###

target: UniProt Q9NPC2; assay: Inhibition of recombinant TASK-3 in stably transfected CHO cells (voltage-sensitive dye, 40 mM KCl depolarization); assay type: cell-based; conditions: 40 mM potassium chloride
Parameter: IC50 (nM)
One number for each entry, in nM.

Use these answered entries as a reference point.
Molecule | IC50 (nM)
COc1cccc(C(=O)N2CC3CN(Cc4c(-c5ccc(Cl)cc5)nc5ccccn45)CC3C2)n1 (centres unmarked) [Example 4] | 2300
O=C(c1ccccc1F)N1CC2CN(Cc3c(-c4ccc(Br)cc4)nc4ccccn34)CC2C1 (centres unmarked) [Example 6] | 1300
O=C(c1cccc(C(F)(F)F)c1)N1CC2CN(Cc3c(-c4ccc(Cl)cc4)nc4ccccn34)CC2C1 (centres unmarked) [Example 23] | 100
CC(C)COC(=O)N1CC2CN(Cc3c(-c4ccc(Br)cc4)nc4ccccn34)CC2C1 (centres unmarked) [Example 32] | 1200
COc1ccccc1C(=O)N1CC2CN(Cc3c(-c4ccc(Cl)cc4)nc4ccccn34)CC2C1 (centres unmarked) [Example 18] | 4900
Cc1ccccc1C(=O)N1CC2CN(Cc3c(-c4ccc(Cl)cc4)nc4ccccn34)CC2C1 (centres unmarked) [Example 20] | 2500

Record IC50 for all entries; do not skip any.
1. COc1ccc(F)c(C(=O)N2CC3CN(Cc4c(-c5ccc(C(C)C)cc5)nc5ccccn45)CC3C2)n1 (centres unmarked) [Example 48]
2. O=C(Oc1cccc(C(F)(F)F)c1)N1CC2CN(Cc3c(-c4ccc(Br)cc4)nc4ccccn34)CC2C1 (centres unmarked) [Example 36]

1. 79
2. 450

###

So I've got a bunch of compounds here, and I need their pIC50 values.
Target: human TASK-1 (Homo sapiens (Human), UniProt O14649)
Test: Inhibition of recombinant TASK-1 in stably transfected CHO cells (voltage-sensitive dye, 40 mM KCl depolarization)
Assay type: cell-based
Conditions: 40 mM potassium chloride
Procedure: B-2. Inhibition of Recombinant TASK-1 and TASK-3 In Vitro The investigations on the inhibition of the recombinant TASK-1 and TASK-3 channels were conducted using stably transfected CHO cells. […] 6 (5), 305-312 (2001); Molecular Devices FLIPR Application Note: Measuring membrane potential using the FLIPR® membrane potential assay kit on Fluorometric Imaging Plate Reader (FLIPR®) systems, http://www.moleculardevices.com/reagents-supplies/assay-kits/ion-channels/flipr-membrane-potential-assay-kits]. […]
One number for each entry, as −log10 of the molar value.

Record pIC50 for all entries; do not skip any.
1. O=C(c1ccccc1F)N1CC2CN(Cc3c(-c4ccc(Cl)cc4)nc4ccccn34)CC2C1 (centres unmarked) [Example 14]
2. O=C(C1CCCCC1)N1CC2CN(Cc3c(-c4ccc(Cl)cc4)nc4ccccn34)CC2C1 (centres unmarked) [Example 16]
3. COc1ccc(F)c(C(=O)N2CC3CN(Cc4c(-c5ccc(C(C)C)cc5)nc5ccccn45)CC3C2)n1 (centres unmarked) [Example 48]
4. CC(C)(C)OC(=O)N1CC2CN(Cc3c(-c4ccc(Br)cc4)nc4ccccn34)CC2C1 (centres unmarked) [Example 2]
5. COc1ccccc1C(=O)N1CC2CN(Cc3c(-c4ccc(Br)cc4)nc4ccccn34)CC2C1 (centres unmarked) [Example 11]
6. O=C(c1cccc(OC(F)(F)F)c1)N1CC2CN(Cc3c(-c4ccc(Cl)cc4)nc4ccccn34)CC2C1 (centres unmarked) [Example 22]

5.97
5.71
7.11
5.76
5.92
5.84

Record pIC50 for all entries; do not skip any.
1. CC(C)COC(=O)N1CC2CN(Cc3c(-c4ccc(Br)cc4)nc4ccccn34)CC2C1 (centres unmarked) [Example 32]
2. COc1cccc(C(=O)N2CC3CN(Cc4c(-c5ccc(Br)cc5)nc5ccccn45)CC3C2)c1 (centres unmarked) [Example 10]

5.96
6.69
